Observed Ki values for Carbonic anhydrase 13 (Mus musculus, UniProt Q9D6N1) are listed in what follows.
Only the number, expressed in µM, is required.

Request: I'm curious: which Ki was measured for COc1cc(/C=C/C(=O)OCc2ccccc2)ccc1O [BENZYL FERULATE] tested on Carbonic anhydrase 13 (Mus musculus, UniProt Q9D6N1)?
Response: 0.94

Request: I'm curious: which Ki was measured for `O=C(/C=C/c1ccc(O)cc1)OCCc1cccc(O)c1` tested on Carbonic anhydrase 13 (Mus musculus, UniProt Q9D6N1)?
Response: 11.6

====

- TEST SYSTEM: Carbonic anhydrase 14 (Homo sapiens)
- Sequence (Q9ULX7 whole entry): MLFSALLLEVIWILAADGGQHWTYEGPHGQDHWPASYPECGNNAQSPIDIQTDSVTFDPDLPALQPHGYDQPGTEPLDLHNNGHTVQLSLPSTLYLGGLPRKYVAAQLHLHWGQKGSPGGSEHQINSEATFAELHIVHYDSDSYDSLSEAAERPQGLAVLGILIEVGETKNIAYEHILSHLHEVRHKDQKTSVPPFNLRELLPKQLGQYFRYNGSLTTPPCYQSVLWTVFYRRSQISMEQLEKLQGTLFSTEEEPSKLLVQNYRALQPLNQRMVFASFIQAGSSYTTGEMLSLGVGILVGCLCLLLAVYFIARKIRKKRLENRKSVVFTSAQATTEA
- TEST METHOD NOTES: Inhibition of human carbonic anhydrase 14 preincubated for 15 mins by stopped-flow CO2 hydration assay
EXPERIMENTAL ENDPOINT: pKi
The scale used: pKi is minus the common logarithm of the concentration in molar units.

Request: For `O=C(/C=C/c1ccc(O)cc1)OCc1ccccc1` , what is its reported pKi?
Response: 6.09

====

Exercise: state measured Ki for each of the compounds provided.
# answer = value followed by unit

Request: I'm curious: which Ki was measured for `O=C(/C=C/c1ccc(O)cc1)OCCc1cccc(O)c1` tested on Carbonic anhydrase 9 (Homo sapiens, UniProt Q16790)?
Response: 820 nM

Request: I'm curious: which Ki was measured for `O=C(/C=C/c1ccc(O)c(O)c1)OCCc1cccc(OCCc2cccc(O)c2)c1` tested on Carbonic anhydrase 9 (Homo sapiens, UniProt Q16790)?
Response: 970 nM

Request: I'm curious: which Ki was measured for COc1cc(/C=C/C(=O)OCc2ccccc2)ccc1O [BENZYL FERULATE] tested on Carbonic anhydrase 9 (Homo sapiens, UniProt Q16790)?
Response: 1030 nM

Request: I'm curious: which Ki was measured for `O=C(/C=C/c1ccc(O)cc1)OCc1ccccc1` tested on Carbonic anhydrase 9 (Homo sapiens, UniProt Q16790)?
Response: 860 nM

Request: I'm curious: which Ki was measured for `O=C(/C=C/c1ccc(O)c(O)c1)OCCc1ccc(OCCc2ccc(O)cc2)cc1` tested on Carbonic anhydrase 9 (Homo sapiens, UniProt Q16790)?
Response: 930 nM

====

pKi: −log10 of the molar value.
Exercise: state measured pKi for each of the molecules provided.

Request: I'm curious: which pKi was measured for `O=C(/C=C/c1ccc(O)cc1)OCc1ccccc1` tested on Carbonic anhydrase 1 (Homo sapiens)?
Response: < 4.30

Request: I'm curious: which pKi was measured for COc1cc(/C=C/C(=O)OCc2ccccc2)ccc1O [BENZYL FERULATE] tested on Carbonic anhydrase 1 (Homo sapiens)?
Response: < 4.30

Request: I'm curious: which pKi was measured for `O=C(/C=C/c1ccc(O)cc1)OCCc1cccc(O)c1` tested on Carbonic anhydrase 1 (Homo sapiens)?
Response: 5.44
